Target: T1, Anti-CD28 scFv (VH - linker 1 - VL) (biotinylated (site not stated))
T1 construct: Biotinylated and captured on neutravidin-coated plates in the phage panning ELISA
T1 sequence (scFv, as listed by the source): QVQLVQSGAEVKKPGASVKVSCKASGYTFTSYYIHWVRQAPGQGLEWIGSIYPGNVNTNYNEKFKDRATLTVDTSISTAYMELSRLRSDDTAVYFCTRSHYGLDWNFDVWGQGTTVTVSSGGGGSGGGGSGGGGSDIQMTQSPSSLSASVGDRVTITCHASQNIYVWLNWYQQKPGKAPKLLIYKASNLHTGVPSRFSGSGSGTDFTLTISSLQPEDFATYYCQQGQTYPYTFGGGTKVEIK
Assay: phage ELISA; biotinylated anti-CD28 scFv on neutravidin plate, clonal phage supernatant, anti-M13-HRP detection;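 note: before phage addition, wells were pretreated with soluble CD28 protein in blocking buffer, or with blocking buffer only as the comparison, then phage were added without washing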
result type: CD28 scFv signal
I'd appreciate a reply containing only the number, no unit.

INSERT INTO results (binder, result_type, reported_measurement) VALUES
  ('MAWCPWAQFDECLA (tested as crude clonal phage supernatant) [Phage-433 clonal phage peptide MAWCPWAQFDECLA]', 'CD28 scFv signal', 0.071),
  ('IDWCPIIQGLPCFA (tested as crude clonal phage supernatant) [Phage-432 clonal phage peptide IDWCPIIQGLPCFA]', 'CD28 scFv signal', 0.368),
  ('IVWCPTTQWNRCAT (tested as crude clonal phage supernatant) [Phage-434 clonal phage peptide IVWCPTTQWNRCAT]', 'CD28 scFv signal', 0.067),
  ('MAWCPADQWHECFN (tested as crude clonal phage supernatant) [Phage-431 clonal phage peptide MAWCPADQWHECFN]', 'CD28 scFv signal', 1.84),
  ('MDWCPRDRWADCFN (tested as crude clonal phage supernatant) [Phage-436 clonal phage peptide MDWCPRDRWADCFN]', 'CD28 scFv signal', 1.35),
  ('ITQCPSTMWNRCSV (tested as crude clonal phage supernatant) [Phage-424 clonal phage peptide ITQCPSTMWNRCSV]', 'CD28 scFv signal', 0.098),
  ('MDWCPRDRWDVCFA (tested as crude clonal phage supernatant) [Phage-439 clonal phage peptide MDWCPRDRWDVCFA]', 'CD28 scFv signal', 0.924);

Item MYWCPKYMWSECFA (tested as crude clonal phage supernatant) [Phage-418 clonal phage peptide MYWCPKYMWSECFA] has what recorded CD28 scFv signal?
0.741
